IC50, TF-1 cell proliferation values by entry
TESTED_TARGET: T1, human GM-CSFRα, full length on cells (human, UniProt P15509 23-400)
T1 sequence: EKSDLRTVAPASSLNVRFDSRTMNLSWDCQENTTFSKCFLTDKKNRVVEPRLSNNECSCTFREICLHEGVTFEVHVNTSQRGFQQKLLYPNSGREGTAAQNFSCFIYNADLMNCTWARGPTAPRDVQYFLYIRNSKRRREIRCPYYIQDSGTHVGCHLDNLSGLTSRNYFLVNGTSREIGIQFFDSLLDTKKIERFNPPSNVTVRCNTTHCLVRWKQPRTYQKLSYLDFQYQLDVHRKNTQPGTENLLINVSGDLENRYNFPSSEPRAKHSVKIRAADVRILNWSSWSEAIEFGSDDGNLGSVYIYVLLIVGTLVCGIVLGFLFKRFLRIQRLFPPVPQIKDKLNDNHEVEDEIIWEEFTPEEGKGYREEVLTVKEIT
PROTOCOL_NOTES: cell-based or functional assay
Hi! Could you send only the number? It should be in µg/mL, unit omitted.

E35-scFv LA51V (scFv, V domains shown) VH: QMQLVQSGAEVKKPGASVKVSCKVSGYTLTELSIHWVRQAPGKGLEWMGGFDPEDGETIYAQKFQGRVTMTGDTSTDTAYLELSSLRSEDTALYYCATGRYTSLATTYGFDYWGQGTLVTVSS VL: EIVMTQSPATLSLSPGERATLSCRASQSVSSYLAWYQQKPGQAPRLLIYGVSSRATGIPDRFSGSGSGTDFTLTISRLEPEDFAVYYCQQYDNWPYTFGQGTKLEIK | 0.36
E35-scFv HT30K (scFv, V domains shown) VH: QMQLVQSGAEVKKPGASVKVSCKVSGYTLKELSIHWVRQAPGKGLEWMGGFDPEDGETIYAQKFQGRVTMTGDTSTDTAYLELSSLRSEDTALYYCATGRYTSLATTYGFDYWGQGTLVTVSS VL: EIVMTQSPATLSLSPGERATLSCRASQSVSSYLAWYQQKPGQAPRLLIYGASSRATGIPDRFSGSGSGTDFTLTISRLEPEDFAVYYCQQYDNWPYTFGQGTKLEIK | 0.325
E35-scFv LN93L (scFv, V domains shown) VH: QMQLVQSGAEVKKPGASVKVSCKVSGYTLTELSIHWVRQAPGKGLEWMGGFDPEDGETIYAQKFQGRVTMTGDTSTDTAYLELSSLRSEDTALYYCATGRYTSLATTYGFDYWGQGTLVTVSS VL: EIVMTQSPATLSLSPGERATLSCRASQSVSSYLAWYQQKPGQAPRLLIYGASSRATGIPDRFSGSGSGTDFTLTISRLEPEDFAVYYCQQYDLWPYTFGQGTKLEIK | 0.33
E35-scFv LS31T (scFv, V domains shown) VH: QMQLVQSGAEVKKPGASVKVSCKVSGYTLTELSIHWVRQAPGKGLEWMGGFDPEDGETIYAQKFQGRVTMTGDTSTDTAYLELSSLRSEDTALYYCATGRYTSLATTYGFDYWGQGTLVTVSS VL: EIVMTQSPATLSLSPGERATLSCRASQSVSTYLAWYQQKPGQAPRLLIYGASSRATGIPDRFSGSGSGTDFTLTISRLEPEDFAVYYCQQYDNWPYTFGQGTKLEIK | 0.06

Please find the next binder below.
IC50, TF-1 cell proliferation for E35-scFv LQ27S (scFv, V domains shown) VH: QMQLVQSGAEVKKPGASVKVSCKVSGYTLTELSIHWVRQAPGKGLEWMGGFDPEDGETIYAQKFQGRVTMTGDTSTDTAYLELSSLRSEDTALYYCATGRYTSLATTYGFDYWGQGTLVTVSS VL: EIVMTQSPATLSLSPGERATLSCRASSSVSSYLAWYQQKPGQAPRLLIYGASSRATGIPDRFSGSGSGTDFTLTISRLEPEDFAVYYCQQYDNWPYTFGQGTKLEIK ?
0.138
